system: U251 CNS; test: NCI tumour cell line growth inhibition, 48 h
measured parameter: TGI

[Q] Please list TGI recorded for the compound CC12CCC(=O)C=C1CCC1C2C(O)CC2(C)C(c3csc(N)n3)CCC12 (stereo unspecified)
[A] > 100 µM

[Q] Please list TGI recorded for the compound COc1c(N2CCN(CN3C(=O)C(=Nc4ccc(S(=O)(=O)Nc5ncccn5)cc4)c4ccccc43)C(C)C2)c(F)cc2c(=O)c(C(=O)O)cn(C3CC3)c12 (stereo unspecified)
[A] > 50 µM

[Q] Please list TGI recorded for the compound CC(=O)O[C@@H]1CC2C(C)(C)CCCC2(C)C2=C1C(=O)C(C(C)C)=CC2=O (stereo partly specified)
[A] > 100 µM

[Q] Please list TGI recorded for the compound COC(=O)C1C2C=CC(C2)N1[C@@H](C)c1ccccc1 (stereo partly specified)
[A] > 100 µM

[Q] Please list TGI recorded for the compound "Nc1nc(Cl)cc(Nc2cc(Cl)cc(Cl)c2)n1"
[A] 38.4 µM

[Q] Please list TGI recorded for the compound COc1cccc(C(=O)C2C(=O)N(C)CCc3ccccc32)c1OC (stereo unspecified)
[A] > 100 µM

[Q] Please list TGI recorded for the compound "O=C1CCCCc2cccc(O)c21"
[A] > 100 µM

[Q] Please list TGI recorded for the compound COc1cccc(C2c3cc4c(cc3OC(O)(CO)C2C(=O)O)OCO4)c1 (stereo unspecified) (tested in a mixture with another compound)
[A] 62.2 µM

[Q] Please list TGI recorded for the compound Cc1cc2c(c(C=NCc3ccccc3)c1)OC1(C=C2)Oc2ccccc2C(=O)N1C (stereo unspecified)
[A] 80.3 µM

[Q] Please list TGI recorded for the compound "Brc1ccccc1-c1ncc(-c2ccccc2)o1"
[A] 44.2 µM

[Q] Please list TGI recorded for the compound "COC(=O)c1c(C)cccc1/C=C1\Cc2cc(C)cc(C)c2C1=O"
[A] 48.2 µM

[Q] Please list TGI recorded for the compound "CC1(C)N=C(N)N=C(N)N1c1cccc(OCCOc2ccc([N+](=O)[O-])cc2)c1"
[A] > 100 µM

[Q] Please list TGI recorded for the compound "CSc1ccc(/C=C2\N=C(c3ccccc3)N(c3nc4ccc(Sc5ccccc5)cc4[nH]3)C2=O)cc1"
[A] 41.3 µM

[Q] Please list TGI recorded for the compound "Cc1cc2c3ccccc3n(C)c2c2c1C(=O)C=CC2=O"
[A] 32.6 µM

[Q] Please list TGI recorded for the compound "COc1cc(/C=C/C(=O)c2sc(Nc3ccccc3)nc2C)ccc1O"
[A] > 100 µM

[Q] Please list TGI recorded for the compound "Cc1ccc(S(N)(=O)=O)cc1"
[A] > 1000 µM

[Q] Please list TGI recorded for the compound "Cc1ccc(NC(=O)/C(=N\Nc2ccc([N+](=O)[O-])cc2[N+](=O)[O-])C2C(=O)NC(=O)NC2=O)cc1"
[A] > 100 µM

[Q] Please list TGI recorded for the compound COC(=O)c1c(C)cccc1CC1Cc2c(C)cccc2C1=O (stereo unspecified)
[A] > 100 µM

[Q] Please list TGI recorded for the compound NNC(=O)CCC(=O)NC1C2CC3CC(C2)CC1C3 (stereo unspecified)
[A] > 100 µM

[Q] Please list TGI recorded for the compound "O[C@@H]1C[C@@H]2N[C@@](O)(C[C@@H]2O)[C@H]1O"
[A] > 100 µM

[Q] Please list TGI recorded for the compound "O=S1C2=C(Cc3ccccc3)C(Cc3ccccc3)=C1CCc1cccc(c1)CC2"
[A] 26.8 µM

[Q] Please list TGI recorded for the compound N#CC1(C#N)NC(c2ccsc2)C(C#N)(C#N)NC1c1ccsc1 (stereo unspecified)
[A] > 100 µM

[Q] Please list TGI recorded for the compound "C#C[C@]1(O)CC[C@H]2[C@@H]3CCc4cc(OC(=O)c5cccc6cc7ccccc7nc56)ccc4[C@H]3CC[C@@]21C"
[A] > 100 µM

[Q] Please list TGI recorded for the compound "O=C(CSC(=S)N1CCOCC1)Nc1nc2c(s1)CCCC2"
[A] > 100 µM

[Q] Please list TGI recorded for the compound COc1ccc(CC(C)N)cc1 (stereo unspecified)
[A] > 100 µM

[Q] Please list TGI recorded for the compound "C1=C\CCCCN2C[C@H]3CCCC/C=C\CCCCN4CC[C@@H]([C@H](CCCCCC/1)C4)[C@H](C3)C2"
[A] 3.41 µM

[Q] Please list TGI recorded for the compound "CCN(Cc1ccccc1OC)c1ccc(CO)c(Cl)c1"
[A] 14.8 µM

[Q] Please list TGI recorded for the compound CC(=O)OCC1=C(C)C(OC(=O)C(OC(C)=O)[C@@H](NC(=O)c2ccccc2)c2ccccc2)CCC1(C)C (stereo partly specified)
[A] > 100 µM

[Q] Please list TGI recorded for the compound "COc1ccccc1N1CCN(Cn2c(=O)oc3cccnc32)CC1"
[A] > 100 µM

[Q] Please list TGI recorded for the compound "COc1ccc2c3c(c(=O)n(C)c2c1OC)C=CC(C)(C)O3"
[A] > 100 µM

[Q] Please list TGI recorded for the compound "N/C(=N/n1c(=S)[nH]c2ccccc2c1=O)Nn1c(=S)[nH]c2ccccc2c1=O"
[A] 72.3 µM

[Q] Please list TGI recorded for the compound "O=[N+]([O-])c1ccc2nc(/C=C(\O)c3ccc(F)cc3)c(/C=C(\O)c3ccc(F)cc3)nc2c1"
[A] 70.5 µM

[Q] Please list TGI recorded for the compound "CCC(=O)O[C@H]1CC[C@H]2[C@@H]3CCC4=C/C(=N/NC(=O)c5cccc6c(=O)c7ccccc7[nH]c56)CC[C@]4(C)[C@H]3CC[C@]12C"
[A] > 25 µM

[Q] Please list TGI recorded for the compound "c1ccc(CSc2nc(N3CCOCC3)c3cn[nH]c3n2)cc1"
[A] 63.2 µM

[Q] Please list TGI recorded for the compound O=C(CC(C(=O)c1ccoc1)c1ccco1)c1ccco1 (stereo unspecified)
[A] > 100 µM

[Q] Please list TGI recorded for the compound "CC(C)C[P+](c1ccccc1)(c1ccccc1)c1ccccc1"
[A] > 100 µM

* * *

test system: NCI-H23 lung; test: NCI tumour cell line growth inhibition, 48 h
Answer each item with its documented TGI.

[Q] Please list TGI recorded for the molecule COc1ccc2c3c1OC1c4[nH]c5ccccc5c4CC4(O)C(C2)N(C)CCC314 (stereo not given)
[A] > 100 µM

[Q] Please list TGI recorded for the molecule "O=c1[nH]nc(Cc2ccccc2)n1Nc1ccccc1"
[A] > 100 µM

[Q] Please list TGI recorded for the molecule "CCOC(=O)C(=O)Nc1c(C)cccc1C"
[A] > 100 µM

[Q] Please list TGI recorded for the molecule "Cc1nc2c(sc3nc4ccccc4n32)c(=O)[nH]1"
[A] > 100 µM

[Q] Please list TGI recorded for the molecule CC(C)C1CC(O)O[C@@H]([C@@H](C)[C@H]2CC(=O)[C@@H]3[C@@H]4[C@@H](O)[C@H](O)[C@H]5[C@@H](O)[C@H](O)CC[C@]5(C)[C@H]4CC[C@]23C)C1 (stereo not given in full)
[A] > 100 µM

[Q] Please list TGI recorded for the molecule "O=C(N/N=C\c1ccc2ccccc2c1)Nc1ccc([N+](=O)[O-])cc1"
[A] > 72.3 µM

[Q] Please list TGI recorded for the molecule CC(=O)OCC1OC(n2ccc(=O)[nH]c2=O)C(OC(C)=O)C1OC(C)=O (stereo not given)
[A] > 100 µM

[Q] Please list TGI recorded for the molecule "C=CC[C@H]1[C@H](O[Si](C)(C)C(C)(C)C)C=CC(=O)[C@@H]1CC(=O)N(Cc1ccccc1)Cc1ccccc1"
[A] 30.5 µM

[Q] Please list TGI recorded for the molecule "Cc1cn(Cc2ccccc2CCl)c(=O)[nH]c1=O"
[A] 23.3 µM

[Q] Please list TGI recorded for the molecule CC1=C(O)C(=O)C2C(=O)C1C(C)C2c1ccc(Cl)cc1 (stereo not given)
[A] > 100 µM

[Q] Please list TGI recorded for the molecule "Cc1cccc(NC(=S)N=Nc2c(O)[nH]c3ccccc23)c1"
[A] > 100 µM

[Q] Please list TGI recorded for the molecule "O=C(CCl)N1c2ccccc2Sc2c1ccc1ccccc21"
[A] 5.11 µM

[Q] Please list TGI recorded for the molecule "COc1cc(CNc2ccc(C(C)C)cc2)cc(OC)c1OC"
[A] 45.5 µM

[Q] Please list TGI recorded for the molecule "C1=C\CCCCN2C[C@H]3CCCC/C=C\CCCCN4CC[C@@H]([C@H](CCCCCC/1)C4)[C@H](C3)C2"
[A] 18.9 µM

[Q] Please list TGI recorded for the molecule CCOC(=O)C(NC(=O)Nc1ccc(Cl)c(Cl)c1)C(F)(F)F (stereo not given)
[A] > 100 µM

* * *

tested on: NCI/ADR-RES ovarian; experiment: NCI tumour cell line growth inhibition, 48 h
measured parameter: TGI

[Q] Report measured TGI on NCI/ADR-RES ovarian; entry: "CC(C)CCn1c(=O)c2c(=O)[nH][nH]c2c2ccccc21"
[A] > 100 µM

[Q] Report measured TGI on NCI/ADR-RES ovarian; entry: "Nc1nc2c(c(=O)[nH]1)CN(c1ccc(S(N)(=O)=O)cc1)CN2"
[A] > 100 µM

[Q] Report measured TGI on NCI/ADR-RES ovarian; entry: "COc1cc[n+](C)cc1"
[A] > 100 µM
